Just for reference, PubChem BioAssay is where these values come from.

- Assay comment: growth suppression of yeast trafficking mutant, preliminary HTS, modulators of trafficking downstream of Golgi apparatus project, 1536-format plate, OD 615 nm (AID 637); note: test concentration not given here
- Test settings: yeast transport mutant growth, absorbance 615 nm, 18 h; hits give high values
Recorded metric: inhibition (%)
Entry rule: numbers only, all in %.

Look over these answered cases.
Exercise: So what does the record say about inhibition for CNC(=O)CSc1nnc(-c2cc(C)cc(C)c2)o1 ?
Solution: -3.06

Exercise: So what does the record say about inhibition for O=C(CS(=O)(=O)c1cn(Cc2ccc(Cl)cc2)c2ccccc12)N1CCCC1 ?
Solution: 1

Exercise: So what does the record say about inhibition for O=C(Nc1ncc(Br)s1)C1CCCN1S(=O)(=O)c1cccc2cccnc12 (stereo not drawn) ?
Solution: -1.5

Exercise: So what does the record say about inhibition for CCCn1c(SCC(=O)NCCc2ccccc2)nnc1-c1ccccn1 ?
Solution: -5.16

Exercise: So what does the record say about inhibition for CCCCn1nnc(NC(=O)c2cc3ccccc3o2)n1 ?
Solution: 8

Proceed to the following item.
Exercise: So what does the record say about inhibition for Cc1ccc(C)c2[nH]c(=O)c(CN(CCN3CCCC3)C(=O)Nc3cccc(Cl)c3)cc12 ?
Solution: -0.32
